- Study Target: Neprilysin (Oryctolagus cuniculus, UniProt P08049)
- Sequence (P08049 whole entry): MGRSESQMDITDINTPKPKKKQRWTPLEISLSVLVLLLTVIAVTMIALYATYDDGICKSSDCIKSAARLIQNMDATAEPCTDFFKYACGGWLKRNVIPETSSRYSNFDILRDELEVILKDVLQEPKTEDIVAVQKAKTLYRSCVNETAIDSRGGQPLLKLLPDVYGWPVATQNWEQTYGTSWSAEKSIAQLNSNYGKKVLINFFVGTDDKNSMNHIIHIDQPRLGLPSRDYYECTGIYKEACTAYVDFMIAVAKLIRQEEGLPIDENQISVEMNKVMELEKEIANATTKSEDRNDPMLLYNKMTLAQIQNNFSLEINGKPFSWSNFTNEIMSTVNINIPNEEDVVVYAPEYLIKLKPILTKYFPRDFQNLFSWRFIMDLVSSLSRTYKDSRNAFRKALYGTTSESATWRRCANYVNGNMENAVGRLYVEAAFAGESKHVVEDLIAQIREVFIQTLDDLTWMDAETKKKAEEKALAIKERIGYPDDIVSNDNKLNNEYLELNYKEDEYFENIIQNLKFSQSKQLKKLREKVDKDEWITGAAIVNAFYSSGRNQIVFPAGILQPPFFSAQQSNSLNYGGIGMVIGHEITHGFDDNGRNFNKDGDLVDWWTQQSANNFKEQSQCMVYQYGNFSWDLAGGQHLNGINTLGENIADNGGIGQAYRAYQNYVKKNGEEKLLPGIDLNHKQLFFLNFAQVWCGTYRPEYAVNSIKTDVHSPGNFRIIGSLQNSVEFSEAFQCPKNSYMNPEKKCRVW
- Assay Remarks: In vitro inhibitory activity against neutral endopeptidase (NEP)
Quantity Name: IC50 (nM)

Worked cases, IC50 given:
Compound	IC50, nM
CCSC[C@@H](NC(=O)C(CS)Cc1ccccc1)C(=O)O (stereo partly specified)	6.5
CCSCC[C@@H](NC(=O)[C@@H](CS)Cc1ccccc1)C(=O)O	5
CSCC[C@@H](NC(=O)C(CS)Cc1ccccc1)C(=O)O (stereo partly specified)	4

[A] O=C(N[C@H](CSC(c1ccccc1)(c1ccccc1)c1ccccc1)C(=O)O)C(CS)Cc1ccccc1 (stereo partly specified)
[B] O=C(N[C@H](CSCc1ccccc1)C(=O)O)[C@@H](CS)Cc1ccc(Cl)cc1
IN: Of A and B , whose reported IC50 is the larger number? Write the label of whichever entry you select.
OUT: A
(A: 274 nM, B: 3 nM)
